- study system: T1, human IFP35 protein (human, UniProt P80217 1-286, limits assumed)
- T1 construct: also called interferon-induced protein 35; IFI35
- T1 chain: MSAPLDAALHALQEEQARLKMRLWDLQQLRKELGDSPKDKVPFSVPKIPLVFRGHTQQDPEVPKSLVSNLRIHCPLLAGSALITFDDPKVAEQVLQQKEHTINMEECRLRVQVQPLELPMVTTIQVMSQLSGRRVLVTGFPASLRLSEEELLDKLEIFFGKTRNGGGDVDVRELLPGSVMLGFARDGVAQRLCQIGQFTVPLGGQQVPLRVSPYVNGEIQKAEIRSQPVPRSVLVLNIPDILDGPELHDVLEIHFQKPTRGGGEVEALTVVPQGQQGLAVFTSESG
- procedure summary: affinity kinetics (fortebio), antibody loaded
Reported kon is given for each of the following binders.
State the answer as a number, implicitly in M⁻¹ s⁻¹.

INPUT: Identify kon associated with the binder AE001-H3+L3 (antibody, V domains shown, The same doubt about the 'constant region' label applies as for AE001-H1+L1; also called AE001H3 + AE001L3; humanized antibody) VH: QVQLVQSGAEVKKPGASVKVSCKASGYTFTNYGMNWVRQAPGQGLEWMGWINTYTGEPTVAQKFQGRFTFTLDTSTSTAYLELSSLRNEDTAVYFCARYGYSWAMDYWGQGTSVTVSS VL: DIQMTQSPSSLSASVGDRVTITCQASSSVSYMHWYQQKPGKAPKRLIYDTSKLASGVPSRFSGSGSGTDYTLTISSLQPEDIATYYCQQWSSNPPITFGAGTKLEIK
OUTPUT: 145000

INPUT: Identify kon associated with the binder AE001-8 (antibody, human IgG1, V domains shown, Human IgG1; CDR mutant of AE001-H3+L3; also called AE001-6Hc + 8Lc; AE001-6HC + 8LC) VH: QVQLVQSGAEVKKPGASVKVSCKASGYTFTNYGMNWVRQAPGQGLEWMGWINTYTGEPTVAQKFQGRFTFTLDTSTSTAYLELSSLRNEDTAVYFCARYGYSWAMDYWGQGTSVTVSS VL: DIQMTQSPSSLSASVGDRVTITCQASSSVSYMHWYQQKPGKAPKRLIYDTSKLASGVPSRFSGSGSGTDYTLTISSLQPEDIATYYCQQWSPLPPITFGAGTKLEIK
OUTPUT: 147000
